Target: Bifunctional protein GlmU (Mycobacterium tuberculosis (strain ATCC 25618 / H37Rv)) (UniProt P9WMN3)
Sequence (P9WMN3 whole entry, looked up): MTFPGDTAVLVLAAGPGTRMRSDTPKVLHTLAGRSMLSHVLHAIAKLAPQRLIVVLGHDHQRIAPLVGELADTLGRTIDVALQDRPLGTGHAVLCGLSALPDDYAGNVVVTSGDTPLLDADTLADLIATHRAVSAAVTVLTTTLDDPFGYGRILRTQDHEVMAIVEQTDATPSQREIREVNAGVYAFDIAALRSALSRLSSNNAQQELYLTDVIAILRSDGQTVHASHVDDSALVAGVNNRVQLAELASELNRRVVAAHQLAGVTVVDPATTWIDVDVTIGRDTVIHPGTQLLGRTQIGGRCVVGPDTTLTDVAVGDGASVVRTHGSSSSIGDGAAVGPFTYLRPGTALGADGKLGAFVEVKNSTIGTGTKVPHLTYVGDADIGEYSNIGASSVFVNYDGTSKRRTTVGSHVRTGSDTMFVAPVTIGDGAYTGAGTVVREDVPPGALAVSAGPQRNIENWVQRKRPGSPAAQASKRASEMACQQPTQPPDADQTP
Assay: inhibition of mycobacterial GlmU enzyme – biochemical, glucosamine-1-phosphate acetyltransferase (AID 1376);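 further: 0% = complete reaction with vehicle and 100% = reaction without substrate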
Settings: M. tuberculosis GlmU acetyltransferase enzyme assay; stronger effect = higher value;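 tested at 30 µM in the primary screen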
In all, about 220,000 compounds went through this assay and about 530 (0.24%) were called active. The sample as a whole holds a higher share of actives than the screen did. Potency and affinity values are given separately.
Items are presented alongside their recorded inhibition.
Number in %, nothing else.

Reference set, count: 10
> print(dat)
                                    compound  unit.of.measure  reported.value
 1  O=C(O)c1cc(-c2ccc(/C=C3/SC(=S)N(Cc4ccccc4)C3=O)o2)ccc1Cl                %              17
 2  N#CC(c1nc2ccccc2nc1OCCO)S(=O)(=O)c1ccccc1 (configuration not stated)                %            12.9
 3  CCOc1cc(/C=N/N=C2/NC(=O)C(CC(=O)O)S2)ccc1OCc1ccc(Cl)cc1 (configuration not stated)                %            0.64
 4               CNC(=S)Nc1ccc(Nc2ccccc2)cc1                %            1.36
 5  CCn1c(SCC(=O)N2CCc3ccccc32)nc2c(c1=O)SC(C)C2 (configuration not stated)                %            2.91
 6  CCCCOc1nc2ccccc2nc1C(C#N)S(=O)(=O)c1ccccc1 (configuration not stated)                %            3.84
 7  CCc1c(C)sc(NC(=O)c2ccco2)c1C(=O)N1CCCCC1                %            0.95
 8  Cc1cc(N2CCN(S(=O)(=O)c3ccccc3)CC2)c2ccccc2n1                %           -2.32
 9  COc1ccc(/C=N/N=C2/NC(=O)C(CC(=O)O)S2)cc1OS(=O)(=O)c1ccccc1 (configuration not stated)                %            3.56
10  COC(=O)c1[nH]nc(C(=O)OC(C)(C)C)c1-c1ccccc1                %            13.6

// returns reported inhibition for input CN(C)c1nc(OCCNC(=O)Nc2ccccc2)nc(N2CCCCC2)n1
1.41

Now give it for Cc1ccc(S(=O)(=O)N(C)C)cc1NC(=S)NC(=O)C12CC3CC(CC(C3)C1)C2 too.
-3.56

Now give it for COc1ccc(C(=O)Cn2c(=N)n(C)c3ccccc32)cc1 too.
-4.4

Now give it for CN(c1ccccc1)c1nc(N)c([N+](=O)[O-])c(NCc2ccccc2)n1 too.
-0.66
